The entries below come with measured pEC50 values attached.
# Target System: Gal4 DNA binding domain fused to the LBD of LXRβ in HEK293 cells (Homo sapiens (Human), UniProt P55055)
# Sequence (P55055 222-460 limits assumed): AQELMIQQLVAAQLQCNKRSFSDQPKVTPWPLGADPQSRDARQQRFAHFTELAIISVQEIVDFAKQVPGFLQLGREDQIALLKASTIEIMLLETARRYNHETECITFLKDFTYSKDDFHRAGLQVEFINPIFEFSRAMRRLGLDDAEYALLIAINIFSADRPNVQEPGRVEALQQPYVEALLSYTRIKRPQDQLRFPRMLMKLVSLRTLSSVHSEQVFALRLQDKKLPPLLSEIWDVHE
# Experiment Description: cell-based
# Experimental Context: agonist mode; read-out: Cell LXRβ EC50
pEC50 here is simply -log10 of the concentration when that concentration is written in mol/L.

Observe how each entry below is paired with its result.
{"Molecule": "NS(=O)(=O)c1cccc(N2CCN(C[C@H]3CC[C@@H](C(F)F)CC3)[C@H](c3ccccc3)C2)c1 (single isomer, unassigned)", "pEC50": 5.92}
{"Molecule": "NS(=O)(=O)c1cccc(N2CCN(C[C@H]3CC[C@H](C(F)F)CC3)[C@@H](c3ccccc3)C2)c1 (single isomer, unassigned)", "pEC50": 6.03}

# input for lookup
// field: pEC50; key: NS(=O)(=O)c1cccc(N2CCN(C[C@H]3CC[C@H](C(F)(F)F)CC3)[C@@H](c3ccccc3)C2)c1 (single isomer, unassigned) ; value = 5.93

* * *

# Target System: LXR β LBD protein (Homo sapiens (Human))
# Experiment Description: biochemical
# Format: biochemical
# Experimental Context: read-out: FRET LXRβ EC50
The entries below come with measured pEC50 values attached.
pEC50 here is simply -log10 of the concentration when that concentration is written in mol/L.

{"Molecule": "CS(=O)(=O)c1cccc(N2CCN(C[C@H]3CCN(CC(F)(F)F)C3)[C@@H](c3ccccc3)C2)c1 (single isomer, unassigned)", "Target System": "LXR β LBD protein (Homo sapiens (Human))", "Value Type": "pEC50", "Value Measured": 5.81}
{"Molecule": "C[C@]1(c2ccccc2)CN(c2cccc(S(C)(=O)=O)c2)CCN1Cc1ccc(C(F)(F)F)c(Cl)c1 (single isomer, unassigned)", "Target System": "LXR β LBD protein (Homo sapiens (Human))", "Value Type": "pEC50", "Value Measured": 6.59}
{"Molecule": "CS(=O)(=O)c1cccc(N2CCN(Cc3ccc(C(F)(F)F)cc3)[C@@H](c3ccc(F)cc3)C2)c1", "Target System": "LXR β LBD protein (Homo sapiens (Human))", "Value Type": "pEC50", "Value Measured": 6.46}

// field: pEC50; key: CS(=O)(=O)c1cccc(N2CCN(Cc3ccc(C(F)(F)F)nc3)[C@@H](c3ccccc3Cl)C2)c1 (single isomer, unassigned) ; value = 7.26

// field: pEC50; key: CS(=O)(=O)c1cccc(N2CCN(Cc3ccc(C(F)(F)F)c(F)c3)[C@H](c3ccccc3)C2)c1 (single isomer, unassigned) ; value = 4.75

// field: pEC50; key: CS(=O)(=O)c1cccc(N2CCN(Cc3ccc(OC(F)F)cc3)[C@H](c3ccccc3)C2)c1 ; value = 4.60

// field: pEC50; key: CS(=O)(=O)c1cccc(N2CCN(Cc3ccc(OC(F)(F)F)cc3)[C@@H](c3ccccc3)C2)c1 (single isomer, unassigned) ; value = 6.15

// field: pEC50; key: CS(=O)(=O)c1cccc(N2CCN(Cc3ccc(C(F)(F)F)c(F)c3)[C@@H](c3ccccc3)C2)c1 (single isomer, unassigned) ; value = 6.39

* * *

# Target System: UniProtKB Q13133
# Sequence (Q13133 209-447): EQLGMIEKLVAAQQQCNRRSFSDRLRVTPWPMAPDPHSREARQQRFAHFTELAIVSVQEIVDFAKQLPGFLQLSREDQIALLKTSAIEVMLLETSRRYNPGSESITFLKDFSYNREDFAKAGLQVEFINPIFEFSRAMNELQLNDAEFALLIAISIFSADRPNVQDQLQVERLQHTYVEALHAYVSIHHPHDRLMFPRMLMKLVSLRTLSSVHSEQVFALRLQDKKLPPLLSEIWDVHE
# Experiment Description: Human LXRα coactivator recruitment FRET assay, agonist mode
# Format: biochemical
# Experimental Context: agonist mode
Value Type: EC50

{"Molecule": "CS(=O)(=O)c1cc(N2CCN(Cc3ccc(C(F)(F)F)nc3)C(c3ccccc3)C2)ccc1C(N)=O (stereo not drawn) [46-58]", "Value Measured": "> 50 µM"}
{"Molecule": "CC(C)(C)OC(=O)N1CCN(c2cccc(S(C)(=O)=O)c2)C[C@H]1C(C)(C)O [6-1]", "Value Measured": "> 50 µM"}

# input for lookup
// field: EC50; key: NS(=O)(=O)c1cccc(N2CCN(C[C@H]3CC[C@H](C(F)(F)F)CC3)[C@H](c3ccccc3)C2)c1 (single isomer, unassigned) [48-36] ; value = > 50 µM

* * *

The entries below come with measured Cell LXRβ efficacy values attached.
# Target System: Gal4 DNA binding domain fused to the LBD of LXRβ in HEK293 cells (Homo sapiens (Human))
# Experiment Description: cell-based

{"Compound": "Cc1nc(N2CCN(c3ccc(F)c(S(C)(=O)=O)c3)C[C@H]2C(C)C)ncc1Br", "Cell LXRβ efficacy": "142 (57) %"}

// field: Cell LXRβ efficacy; key: CS(=O)(=O)c1cccc(N2CCN(C[C@H]3CC[C@@H](C(F)(F)F)CC3)[C@@H](c3ccc(F)cc3)C2)c1 ; value = 47 (32) %

// field: Cell LXRβ efficacy; key: CC(C)[C@@H]1CN(c2ccc(F)c(S(C)(=O)=O)c2)CCN1c1nc2cccnc2s1 ; value = 44 (90) %

// field: Cell LXRβ efficacy; key: CS(=O)(=O)c1cc(N2CCN(C[C@H]3CC[C@@H](C(F)(F)F)CC3)[C@@H](c3ccccc3Cl)C2)ccc1C(N)=O (single isomer, unassigned) ; value = 545 (59) %

// field: Cell LXRβ efficacy; key: CC(C)[C@@H]1CN(c2ccc(F)c(S(C)(=O)=O)c2)CCN1c1cncc(C(F)(F)F)n1 ; value = 136 (71) %

// field: Cell LXRβ efficacy; key: COC(c1cnc(N2CCN(c3ccc(F)c(S(C)(=O)=O)c3)C[C@H]2C(C)C)nc1)C(F)(F)F (some centres unmarked) ; value = 124 (20) %

// field: Cell LXRβ efficacy; key: CC(C)[C@@H]1CN(c2ccc(F)c(S(C)(=O)=O)c2)CCN1c1nccc(C2CC2)n1 ; value = 95 (23) %

// field: Cell LXRβ efficacy; key: CC(C)[C@H]1CN(c2cccc(S(C)(=O)=O)c2)CCN1CC1CCCOC1 (some centres unmarked) ; value = 673 (32) %

// field: Cell LXRβ efficacy; key: CS(=O)(=O)c1cccc(N2CCN(Cc3ccc(OC(F)(F)F)cc3)[C@@H](c3ccccc3)C2)c1 (single isomer, unassigned) ; value = 1432 (29) %

// field: Cell LXRβ efficacy; key: CS(=O)(=O)c1cccc(N2CCN(Cc3ccc(C(F)(F)F)nc3)[C@@H](c3ccccc3Cl)C2)c1 (single isomer, unassigned) ; value = 383 (38) %

// field: Cell LXRβ efficacy; key: CC(C)[C@@H]1CN(c2ccc(F)c(S(C)(=O)=O)c2)CCN1c1nc2cnccc2s1 ; value = 1154 (31) %

// field: Cell LXRβ efficacy; key: Cc1cc(C(F)(F)F)nc(N2CCN(c3ccc(F)c(S(C)(=O)=O)c3)C[C@H]2C(C)C)n1 ; value = 161 (44) %

// field: Cell LXRβ efficacy; key: CC(C)[C@H]1CN(c2ccc(CO)c(S(C)(=O)=O)c2)CCN1C[C@@H]1CC[C@@H](C(F)(F)F)OC1 ; value = 58 (78) %

// field: Cell LXRβ efficacy; key: CS(=O)(=O)c1cccc(N2CCN(Cc3ccc(C(F)(F)F)cc3)[C@@H](c3ccccc3)C2)c1 (single isomer, unassigned) ; value = 720 (26) %

* * *

# Target System: Gal4 DNA binding domain fused to the LBD of LXRβ in HEK293 cells (Homo sapiens (Human))
# Experiment Description: cell-based
# Experimental Context: agonist mode
Value Type: Cell LXRβ efficacy

Observe how each entry below is paired with its result.
{"Compound": "NS(=O)(=O)c1cccc(N2CCN(C[C@H]3CC[C@H](C(F)F)CC3)[C@@H](c3ccccc3)C2)c1 (single isomer, unassigned)", "Value Measured": "10%"}
{"Compound": "CC(C)[C@@H]1CN(c2ccc(F)c(S(C)(=O)=O)c2)CCN1C(=O)OC(C)(C)C", "Value Measured": "684 (36) %"}
{"Compound": "NS(=O)(=O)c1cccc(N2CCN(C[C@H]3CC[C@@H](C(F)F)CC3)[C@H](c3ccccc3)C2)c1 (single isomer, unassigned)", "Value Measured": "8%"}
{"Compound": "CC(C)[C@@H]1CN(c2ccc(CO)c(S(C)(=O)=O)c2)CCN1c1ncc(C(N)=O)c(C(F)(F)F)n1", "Value Measured": "46 (13) %"}
{"Compound": "C[C@]1(c2ccccc2)CN(c2cccc(S(C)(=O)=O)c2)CCN1Cc1ccc(C(F)(F)F)c(Cl)c1 (single isomer, unassigned)", "Value Measured": "587 (10) %"}
{"Compound": "CC(C)[C@H]1CC[C@H](CN2CCN(c3cccc(S(C)(=O)=O)c3)C[C@@H]2c2ccccc2)CC1 (single isomer, unassigned)", "Value Measured": "21%"}
{"Compound": "CSCc1cnc(N2CCN(c3ccc(F)c(S(C)(=O)=O)c3)C[C@H]2C(C)C)nc1C(F)(F)F", "Value Measured": "34 (35) %"}
{"Compound": "CC(C)[C@@H]1CN(c2ccc(F)c(S(C)(=O)=O)c2)CCN1c1ncc([C@@H](C)O)c(C(F)(F)F)n1", "Value Measured": "84 (29) %"}

// field: Cell LXRβ efficacy; key: CC(C)[C@@H]1CN(c2ccc(F)c(S(C)(=O)=O)c2)CCN1c1ccc(C(C)(O)C(F)(F)F)cn1 (stereo partly drawn) ; value = 443 (48) %

// field: Cell LXRβ efficacy; key: CC(C)c1ccc(CN2CCN(c3cccc(S(C)(=O)=O)c3)CC2c2ccccc2)cn1 (stereo not drawn) ; value = 5895 (9) %

// field: Cell LXRβ efficacy; key: Cc1coc(-c2ccc(N3CCN(c4ncc(CO)c(C(F)(F)F)n4)[C@H](C(C)C)C3)cc2S(C)(=O)=O)n1 ; value = 405 (53) %

Data provenance: patent US10144715B2
